TGI reference
Tested on: RXF-631 renal
test name: NCI tumour cell line growth inhibition, 48 h

Look over these answered cases.
# molecule, TGI
rows = [
    ("N#CC(c1ccccc1)c1nc2ccc(=N)cc-2n(O)c1C(C#N)c1ccccc1 (configuration not stated)", "> 100 µM"),
    ("CN(C)CCCNc1ccc2ncn3c4ccccc4c(=O)c1c23", "26.3 µM"),
    ("O=C1C=C(Br)c2c(-c3ccccc3)oc3cccc1c23", "> 100 µM"),
]

Task: Provide only the value of recorded TGI for COc1cc2c(cc1OC(=O)CC(C)O)C1C(OC2=O)C(OC(C)=O)C=C2CCN(C)[C@H]21 (some centres not stated)
Output: 93.9 µM

Task: Provide only the value of recorded TGI for N#CC(C(=O)CCC(=O)Nc1cccc(Cl)c1)c1ccccc1 (configuration not stated)
Output: > 100 µM

Task: Provide only the value of recorded TGI for Nn1c(-c2ccccc2Cl)nc2ccccc2c1=O
Output: > 100 µM

Task: Provide only the value of recorded TGI for CCOC1(COP(=O)(OCc2ccccc2)OCc2ccccc2)COC(COP(=O)(OCc2ccccc2)OCc2ccccc2)(OCC)CO1 (configuration not stated)
Output: > 100 µM

* * *

TGI reference
Tested on: DU-145 prostate
test name: NCI tumour cell line growth inhibition, 48 h

# compound, measured target, TGI
records = [
    ("N#Cc1c(N/N=C/c2c(Cl)cccc2Cl)nc(N)nc1N1CCOCC1", "DU-145 prostate", "> 100 µM"),
    ("CNC(=O)OCc1c(COC(=O)NC)c(C)n(-c2ccc(Br)cc2)c1C", "DU-145 prostate", "36.2 µM"),
    ("C=Cc1c(C)c(OC)cc2c1Oc1ccc(OC)c(C)c1CC2", "DU-145 prostate", "> 100 µM"),
    ("CC1CC[C@@H](C(C)C)[C@H](Oc2nnc(C3OC(CO)C(O)C3O)o2)C1 (some centres undefined)", "DU-145 prostate", "> 100 µM"),
    ("Cc1ccc(C2=NOC3=c4ccccc4=CSC3=C2c2ccc([N+](=O)[O-])cc2)cc1", "DU-145 prostate", "> 100 µM"),
    ("Cc1cc(=O)[nH]c(NN2C(Cl)C(=O)C2c2ccc(Cl)cc2)n1 (centres undefined)", "DU-145 prostate", "66.6 µM"),
    ("NNC(=O)c1ccc(-n2nnc(C(=O)NN)c2C(=O)NN)cc1", "DU-145 prostate", "> 100 µM"),
    ("C[C@]12CC[C@H]3[C@@H](CCC4=CC(=O)CC[C@@H]43)[C@@H]1CC[C@@H]2OC(=O)CCc1ccccc1", "DU-145 prostate", "32.5 µM"),
    ("COc1ccc(-c2c3c(nc4nc(SCCc5ccccc5)nc(N)c24)CCCC3)cc1OC", "DU-145 prostate", "> 100 µM"),
    ("COc1cc(OC)c(OC)cc1/C=N/N=C(\\N)NO", "DU-145 prostate", "> 100 µM"),
]

Task: Provide DU-145 prostate TGI reading for O=C(N=S(NC(=O)c1ccccc1)C(Cl)(Cl)Cl)c1ccccc1 (centres undefined) .
Output: > 100 µM

Task: Provide DU-145 prostate TGI reading for Cc1cc(N/N=C/c2nc(-c3ccc(Br)cc3)oc2C)c2cc(Cl)ccc2n1 .
Output: > 100 µM

Task: Provide DU-145 prostate TGI reading for O=C(/C(=C/c1ccc([N+](=O)[O-])cc1)c1ccccc1)c1ccccc1 .
Output: > 100 µM

Task: Provide DU-145 prostate TGI reading for C/C(=N\Nc1ccc2ccccc2n1)c1ccccn1 .
Output: 5.25 µM

* * *

TGI reference
Tested on: SNB-19 CNS
test name: NCI tumour cell line growth inhibition, 48 h

Look over these answered cases.
# compound, assay endpoint, data value
measured = [
    ("CCOC(=O)/C(Cl)=C(\\C)Nc1nc2c(ccc3ccccc32)s1", "TGI", "> 100 µM"),
    ("CNC(=O)N1CN(c2ccccc2)C2(CCN(CCCC(=O)c3ccc(F)cc3)CC2)C1=O", "TGI", "> 100 µM"),
    ("C=CCc1cc(OC)c2c(c1)C(O)CC(c1ccccc1)O2 (stereo not given)", "TGI", "> 100 µM"),
    ("C[C@@H]1CC[C@H]2C(COCCOCC3=C(C(F)(F)F)O[C@@H]4O[C@@]5(C)CC[C@H]6[C@H](C)CC[C@@H]3[C@@]46OO5)=C(C(F)(F)F)O[C@@H]3O[C@@]4(C)CC[C@@H]1[C@]32OO4", "TGI", "> 100 µM"),
]

Task: Provide only the value of recorded TGI for [N-]=[N+]=Nc1c(-c2ccccc2)c(Cl)nc2ccccc12
Output: > 100 µM

Task: Provide only the value of recorded TGI for CC(C)[C@@H]1NC(=O)[C@H]2N=C(O[C@@H]2C)[C@@H]2CCCN2C(=O)[C@H](Cc2ccccc2)NC(=O)[C@@H]2CSC(=N2)[C@@H](Cc2ccccc2)NC(=O)[C@@H]2CSC1=N2
Output: > 50 µM

Task: Provide only the value of recorded TGI for COC(=O)C1CC2(CCC1=O)Cc1ccccc1C2=O (stereo not given)
Output: > 100 µM

Task: Provide only the value of recorded TGI for O=C(NNC1=NCCN1)c1ccco1
Output: > 100 µM

Task: Provide only the value of recorded TGI for NC(=O)NN=C(CS)CS
Output: 52.3 µM

Task: Provide only the value of recorded TGI for COc1ccc(NC2Oc3cc4c(cc3C(c3cccc(OC)c3OC)C2C)OCO4)cc1 (stereo not given)
Output: > 100 µM

Task: Provide only the value of recorded TGI for O=[N+]([O-])c1cccc(-c2nc3sccn3c2-c2ccnc(NCCCNS(=O)(=O)c3cccc(F)c3)n2)c1
Output: 61.8 µM

Task: Provide only the value of recorded TGI for CCC(NC(C)c1ccccc1)C(O)c1ccc(OCc2ccccc2)c(OCc2ccccc2)c1 (stereo not given)
Output: 28.6 µM

Task: Provide only the value of recorded TGI for CC1(CCC2C=CCC2)CCCNC1=S (stereo not given)
Output: > 10 µM

Task: Provide only the value of recorded TGI for O=c1[nH]c2ccccc2nc1-c1c[nH]c2ccccc12
Output: > 100 µM

Task: Provide only the value of recorded TGI for COCn1c2ccc(OC(C)=O)cc2c2c(=O)oc(N(C)C)nc21
Output: > 100 µM

Task: Provide only the value of recorded TGI for COC(=O)C1CCC(=O)N1CN(C(C)=O)c1ccccc1 (stereo not given)
Output: > 100 µM

Task: Provide only the value of recorded TGI for O=C1C(=O)N(c2ccc(Cl)c(Cl)c2)C(=O)C(=O)C1c1nc2ccccc2s1
Output: > 100 µM

Task: Provide only the value of recorded TGI for N#C/C(=C\c1c(-c2ccccc2)[nH]c2ccccc12)S(=O)(=O)c1ccccc1
Output: > 88.2 µM

Task: Provide only the value of recorded TGI for C=Cc1c(C)c(OC)cc2c1Oc1ccc(OC)c(C)c1CC2
Output: > 100 µM

Task: Provide only the value of recorded TGI for NC(N)=N/N=C/c1c(-c2ccccc2)nc2n1ccc1nc(-c3ccccc3)c(/C=N/N=C(N)N)n12
Output: > 100 µM

* * *

Test system: SK-MEL-2 melanoma
test name: NCI tumour cell line growth inhibition, 48 h
assay endpoint: GI50

Look over these answered cases.
# molecule, GI50
data = [
    ("O=C(c1ccccc1)C(CN1CCOCC1)c1ccccc1 (stereo unspecified)", "1.67 µM"),
    ("Cc1cc(N/N=C/c2nc(-c3ccc(Br)cc3)oc2C)c2cc(Cl)ccc2n1", "> 100 µM"),
    ("COC(=O)C(Cc1ccccc1)NC(=O)NC(=O)NC(=O)CI (stereo unspecified)", "16.4 µM"),
    ("COc1ccc2cc(-c3ccoc(=O)c3-c3cc(OC)c(OC)c(OC)c3)ccc2c1", "0.0752 µM"),
    ("COc1ccc(-c2cc(-c3ccccc3)nc(SCCCC(=O)NO)n2)cc1", "2.3 µM"),
    ("N#C/C(=C\\c1c(-c2ccccc2)[nH]c2ccccc12)S(=O)(=O)c1ccccc1", "12.5 µM"),
    ("Cc1ccc(-c2cc(-c3ccc(C)cc3)nc(NCCNc3ccnc4cc(Cl)ccc34)n2)cc1", "1.9 µM"),
    ("Clc1cc(Cl)c(OCC#CI)cc1Cl", "7.98 µM"),
]

Task: Provide only the value of recorded GI50 for CCCn1c(C)nc2c1C(=O)c1ccccc1C2=O
Output: 59.4 µM

Task: Provide only the value of recorded GI50 for COc1cccc(NC(=O)c2sc3nc4c(cc3c2N)CN(Cc2ccccc2)CC4)c1
Output: 10.3 µM

Task: Provide only the value of recorded GI50 for O=C(/C(=C/c1ccccc1)CN1CCCCC1)c1ccccc1
Output: 1.6 µM

* * *

Test system: NCI-H522 lung
test name: NCI tumour cell line growth inhibition, 48 h
assay endpoint: TGI

Look over these answered cases.
# compound, TGI
measured = [
    ("CN(C)c1ccc(N=Nc2ccc3nc[nH]c3c2)cc1", "51.1 µM"),
    ("C[C@]12CCC3[C@@H](CC[C@@H]4c5nonc5CC[C@]34C)C1CCC(=O)N2 (stereo partly specified)", "> 100 µM"),
    ("O=C(N=S(NC(=O)c1ccccc1)C(Cl)(Cl)Cl)c1ccccc1 (stereo unspecified)", "51.1 µM"),
    ("COc1cccc(NC(=O)c2sc3nc4c(cc3c2N)CN(Cc2ccccc2)CC4)c1", "> 100 µM"),
    ("O=C(O)C1(P(=O)(O)O)CC1", "> 100 µM"),
    ("COc1ccc(N2C(=O)C3c4[nH]c5ccc(C)cc5c4C4CCC(C)CC4C3C2=O)cc1 (stereo unspecified)", "> 100 µM"),
    ("O=C(c1ccccc1)c1ccc(COc2ccc(C(c3c(O)c4ccccc4oc3=O)c3c(O)c4ccccc4oc3=O)cc2)cc1", "38.1 µM"),
    ("c1ccc2c(c1)c(NCCCCN1CCCCC1)cc1c3ccccc3c(NCCCCN3CCCCC3)cc21", "> 100 µM"),
    ("O=c1oc2ccccc2cc1/C=N/N1C(=S)N(c2ccccc2)C(=Nc2ccccc2)C1=Nc1ccccc1", "> 100 µM"),
    ("O=c1ccc2cc(O)c(O)cc2o1", "> 100 µM"),
]

Now for a further compound.
Task: Provide NCI-H522 lung TGI reading for CN(C)CCCNc1ccc2ncn3c4ccccc4c(=O)c1c23 .
Output: > 100 µM
